protocol summary: Ascorbate oxidation assay (redox activity of iron complexes)
Assay type: biochemical
assay conditions: sheet IBE 3; time 30 minus time 0; mean (průměr)
Description: The ascorbate oxidation assay was used to assess the redox activity of the iron complexes of the chelators using an established protocol. In brief, 100 μM ascorbic acid was prepared immediately prior to the experiment and incubated either alone or in the presence of 10 μM FeCl3 in a 50-fold molar excess (500 μM) of citrate and the chelators. […] The decrease of absorbance between the two time points was calculated and expressed as a percentage of control without the chelator.
# note: boundary value -0.1 maps to false; Change of absorbance, odečet 0 (time 0 subtracted), čas 30, průměr below it maps to true

{"compound": "CCNC(=O)NN=C(c1ccccc1)c1ccccn1 [E-Bp4eS, 2-benzoylpyridine 4-ethylsemicarbazone]", "class label": "true"}
{"compound": "CCNC(=S)NN=C(c1ccccc1)c1ccccn1", "class label": "true"}
{"compound": "O=C(O)CN(CCN(CC(=O)O)CC(=O)O)CC(=O)O [EDTA, reference compound]", "class label": "true"}

Attention now shifts to the item below.
Exercise: Hi there! Is Change of absorbance, odečet 0 (time 0 subtracted), čas 30, průměr for CC(=O)N(O)CCCCCNC(=O)CCC(=O)N(O)CCCCCNC(=O)CCC(=O)N(O)CCCCCN [DFO, deferoxamine, reference compound] below -0.1, do you know?
Solution: false
